- study system: α1β2γ2 GABAA receptor (Homo sapiens (Human), UniProt P14867+P47870)
- test method notes: Patch clamp electrophysiology of recombinant α1β2γ2 GABAA receptors in LTK cells
- Assay type: cell-based
- test conditions: LTK, 10 μM compound, Qpatch, Ltk cells, GABA EC20 2 μM; read-out: α1β2γ2 GABA Qpatch in Ltk (Efficacy at 10 μm)
# activity at 10 µM per entry

• C[C@]12CC[C@H]3[C@@H](CC[C@@H]4C[C@@](O)(C(F)F)CC[C@@H]43)[C@@H]1CC[C@@H]2C(=O)Cn1nnc2ccccc21 = 10 to 100%
• CC[C@@]1(O)CC[C@H]2[C@@H](CC[C@@H]3[C@@H]2CC[C@]2(C)[C@@H](C(=O)Cn4ncc5ncccc54)CC[C@@H]32)C1 = 100 to 500%
• CCOC[C@@]1(O)CC[C@H]2[C@@H](CC[C@@H]3[C@@H]2CC[C@]2(C)[C@@H](C(=O)Cn4cc5ncccc5n4)CC[C@@H]32)C1 = 10 to 100%
• COC[C@@]1(O)CC[C@H]2[C@@H](CC[C@@H]3[C@@H]2CC[C@]2(C)[C@@H](C(=O)Cn4cc5ccncc5n4)CC[C@@H]32)C1 = 100 to 500%
• CC[C@@]1(O)CC[C@H]2[C@@H](CC[C@@H]3[C@@H]2CC[C@]2(C)[C@@H](C(=O)Cn4nc5ccccc5n4)CC[C@@H]32)C1 = 100 to 500%

Request: Give the measured activity at 10 µM of "COC[C@@]1(O)CC[C@H]2[C@H](CC[C@@H]3[C@@H]2CC[C@]2(C)[C@@H](C(=O)Cn4nc5ccc(F)cc5n4)CC[C@@H]32)C1" .
Result: 100 to 500%

Request: Looking for the measured activity at 10 µM of "C[C@]12CC[C@H]3[C@@H](CC[C@@H]4C[C@@](O)(C(F)F)CC[C@@H]43)[C@@H]1CC[C@@H]2C(=O)Cn1ncc2ncccc21" , can you help?
Result: 100 to 500%

Request: Fill in the blank: the reported activity at 10 µM of "C[C@@]1(O)CC[C@H]2[C@H](CC[C@@H]3[C@@H]2CC[C@]2(C)[C@@H](C(=O)Cn4cc5ncc(Cl)cc5n4)CC[C@@H]32)C1" is ____.
Result: > 500%

Request: // lookup activity at 10 µM for "C[C@@]1(O)CC[C@H]2[C@H](CC[C@@H]3[C@@H]2CC[C@]2(C)[C@@H](C(=O)Cn4nnc5c(Cl)cccc54)CC[C@@H]32)C1"
Result: > 500%

Request: Recorded activity at 10 µM of "Cc1ccc2c(c1)nnn2CC(=O)[C@H]1CC[C@H]2[C@@H]3CC[C@@H]4C[C@](C)(O)CC[C@@H]4[C@H]3CC[C@]12C" , please.
Result: 100 to 500%

Request: Entry "C[C@@]1(O)CC[C@H]2[C@H](CC[C@@H]3[C@@H]2CC[C@]2(C)[C@@H](C(=O)Cn4nc5ccc(OC(F)(F)F)cc5n4)CC[C@@H]32)C1" : reported activity at 10 µM = ?
Result: > 500%

Request: Need activity at 10 µM of "C[C@@]1(O)CC[C@H]2[C@H](CC[C@@H]3[C@@H]2CC[C@]2(C)[C@@H](C(=O)Cn4cc5ccc(F)cc5n4)CC[C@@H]32)C1" , thanks.
Result: > 500%

Request: I'd like to know its activity at 10 µM. The compound in question is "C[C@@]1(O)CC[C@H]2[C@H](CC[C@@H]3[C@@H]2CC[C@]2(C)[C@@H](C(=O)Cn4nc5ccccc5c4O)CC[C@@H]32)C1"
Result: > 500%

Request: Give its activity at 10 µM value. Item: "Cc1cc2cn(CC(=O)[C@H]3CC[C@H]4[C@@H]5CC[C@@H]6C[C@](C)(O)CC[C@@H]6[C@H]5CC[C@]34C)nc2cn1"
Result: 100 to 500%

// data source = patent US11261211B2
